Target: PRKG2 (human)
Assay: KINOMEscan competition binding
Settings: compound 10.0 µM
Readout Name: kinase still bound, per cent of control (%)
Your answer should be a plain number; it is taken to be in %.

The following compounds have reported results that may help.
Compound Smiles | kinase still bound, per cent of control, %
COc1cc(N2CCN(C)CC2)ccc1Nc1ncc2c(n1)N(C)c1ccccc1N(C)C2=O | 99
CN1C(=O)c2ccccc2N(C)c2nc(NS(=O)(=O)c3ccc(N)cc3)ncc21 | 100
CN1C(=O)c2ccccc2N(C)c2nc(Nc3ccc(N4CCC(O)CC4)cc3)ncc21 | 95
COc1cc(N2CCC(O)CC2)ccc1Nc1ncc2c(n1)N1CCc3cccc(c31)C(=O)N2C | 96
O=C1NC(=O)/C(=C/c2c[nH]c(=O)c(-c3ccc(N4CCNCC4)nc3)c2)S1 | 100

Request: Find kinase still bound, per cent of control (PRKG2 (human)) for the entry `CN1CCN(c2ccc(C(=O)Nc3ncc4c(n3)N(C)c3ccccc3C(=O)N4C)cc2)CC1`
Response: 90

Request: Which measured kinase still bound, per cent of control belongs to `COc1cc(N2CCN(C)CC2)ccc1Nc1ncc2c(n1)Nc1ccccc1NC2=O` , tested on PRKG2 (human)?
Response: 100

Request: API: value(readout=kinase still bound, per cent of control, system=PRKG2 (human)) for record `COc1cc(N2CCN(C)CC2)ccc1Nc1ncc2c(n1)N(C)c1sccc1C(=O)N2C`
Response: 84
